- experimental-target: T1, ADF peptide complexed with HLA-A*02:01 on T2 cells (human)
- T1 construct: whole, on cells
- experiment-description: flow cytometry, peptide-loaded T2 cells;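 further: binding of single-chain Fv antibody constructs, raised in XenoMouse, to peptide-pulsed T2 cells measured by flow cytometry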
reported-metric: Signal/background
Give the figure by itself; no unit, no explanation.

>>> observed_result("18179-C1 (scFv, scFv in bacterial lysate, detected with anti-Flag M2) scFv: EVQLLESGAEVKKPGASVKVSCKASGYTFTRNGLSWVRQAPGQGLEWMGWISGYNGDTNYAQKLQGRGTMTTDTSTSTAYMELRSLRSDDTAVYYCARGRATFDYWGQGTLVTVSSGGGGSGGGGSGGGGSELVMTQSPSSLSASVGDRVTITCRASQGISNYLAWYQQKPGKVPKLLISAASTLQSGVPSRFSGSGSGTDFTLTISSLQPEDVATYYCQKYNSAPFTFGPGTKVDIK")
1.3

Now consider the entry below.
In: Which measured Signal/background value corresponds to 18182-G8 (scFv, scFv in bacterial lysate, detected with anti-Flag M2) scFv: EVQLLESGGGLVKPGGSLRLSCAASGFTFSSYAMNWVRQAPGKGLEWVSAISGSGGGTYYADSGKGRFTISRDNSKNTLYLQMNSLRAEDTAVYYCATGKGVHLNFDYWGQGTLVTVSSGGGGSGGGGSGGGGSELVLTQPPSVSVAPGQTARITCGGNNIGSKSVHWYQQKPGQAPVMVVYDDNDRPSGIPERFSGSNSGNTATLTISRVEAGDEADYYCQVWDSSSDHVVFGGGTKLTVL ?
Out: 1

These entries and their values trace back to patent US20220017636A1.
